Biological target: SARS-CoV-2 Mpro (Severe acute respiratory syndrome coronavirus 2)
Assay: cell-based
Entries annotated with measured EC50
Your answer is read as µM, so omit the unit and give the number.

Consider the reported EC50 for these compounds:
{"compound": "O=C[C@H](C[C@@H]1CCNC1=O)NC(=O)[C@H](CC1CCCCC1)N1C[C@@H](NC(=O)OCc2ccccc2)CCC1=O [M-1-4]", "EC50 / µM": 18}
{"compound": "O=C[C@H](C[C@@H]1CCNC1=O)NC(=O)[C@H](Cc1cccc(F)c1)N1C[C@@H](NC(=O)OCc2ccccc2)CCC1=O [M-1-5]", "EC50 / µM": 49.6}

# next compound below
Problem: Fill blank: measured EC50 of the compound CC(C)C[C@@H](C(=O)N[C@H](C=O)C[C@@H]1CCNC1=O)N1C[C@@H](NC(=O)OCc2cc(F)cc(F)c2)CCC1=O [M-1-7] is ____.
Result: 27.3

###

Target: UniProt P0C6X6
Sequence (P0C6X6 3247-3549 limits assumed): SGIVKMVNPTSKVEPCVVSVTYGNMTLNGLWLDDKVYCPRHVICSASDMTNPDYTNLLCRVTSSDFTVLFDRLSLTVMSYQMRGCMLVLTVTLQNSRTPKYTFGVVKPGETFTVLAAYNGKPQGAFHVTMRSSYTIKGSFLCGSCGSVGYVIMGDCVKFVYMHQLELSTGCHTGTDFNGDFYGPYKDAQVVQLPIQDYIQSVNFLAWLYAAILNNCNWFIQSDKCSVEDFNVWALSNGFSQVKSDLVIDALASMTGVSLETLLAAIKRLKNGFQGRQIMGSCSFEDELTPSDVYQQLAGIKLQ
outcome.measure: IC50 (nM)
Your answer is read as nM, so omit the unit and give the number.

{"molecule": "O=C[C@H](C[C@@H]1CCNC1=O)NC(=O)[C@H](CC1CC1)N1C[C@@H](NC(=O)OCc2ccccc2)CCC1=O", "IC50, nM": 180}
{"molecule": "O=C(N[C@H]1CCC(=O)N([C@@H](CC2CC2)C(=O)N[C@@H](C[C@@H]2CCNC2=O)C(=O)C(=O)NC2CC2)C1)OCc1ccccc1", "IC50, nM": 2600}
{"molecule": "O=C[C@H](C[C@@H]1CCNC1=O)NC(=O)[C@H](CC1CCCCC1)N1C[C@@H](NC(=O)OCc2ccccc2)CCC1=O", "IC50, nM": 3670}
{"molecule": "CC(C)C[C@@H](C(=O)N[C@H](C=O)C[C@@H]1CCNC1=O)N1C[C@@H](NC(=O)OCc2ccccc2)CCC1=O", "IC50, nM": 710}

# next compound below
Problem: Fill blank: measured IC50 of the compound CC(C)C[C@@H](C(=O)N[C@@H](C[C@@H]1CCNC1=O)C(=O)C(=O)NC1CC1)N1C[C@@H](NC(=O)OCc2ccccc2)CC1=O is ____.
Result: 120

###

# collection of IC50 values tested on MERS-CoV main protease (Middle East respiratory syndrome-related coronavirus)
# Sequence (K9N7C7 3248-3553 limits assumed): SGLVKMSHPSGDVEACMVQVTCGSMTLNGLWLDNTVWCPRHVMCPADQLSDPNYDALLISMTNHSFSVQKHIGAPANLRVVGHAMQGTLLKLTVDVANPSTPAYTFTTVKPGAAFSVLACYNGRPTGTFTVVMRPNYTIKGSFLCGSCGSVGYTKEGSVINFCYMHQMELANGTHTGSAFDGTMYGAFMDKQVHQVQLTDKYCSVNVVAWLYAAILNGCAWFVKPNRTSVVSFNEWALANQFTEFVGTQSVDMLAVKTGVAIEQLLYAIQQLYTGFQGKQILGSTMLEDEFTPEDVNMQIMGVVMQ
Your answer is read as µM, so omit the unit and give the number.

Consider the reported IC50 for these molecules:
{"molecule": "CC(C)C[C@@H](C(=O)N[C@@H](C[C@@H]1CCNC1=O)C(=O)C(=O)NC1CC1)N1C[C@@H](NC(=O)OCc2ccccc2)CC1=O", "assay.result": 8.02}
{"molecule": "CC(C)C[C@@H](C(=O)N[C@H](C=O)C[C@@H]1CCNC1=O)N1C[C@@H](NC(=O)OCc2ccccc2)CCC1=O", "assay.result": 0.41}

Problem: Fill blank: measured IC50 of the molecule O=C[C@H](C[C@@H]1CCNC1=O)NC(=O)[C@H](CC1CC1)N1C[C@@H](NC(=O)OCc2ccccc2)CCC1=O is ____.
Result: 0.85
